# test target: the molecule itself
# assay comment: SEC; RitRFL wild-type and mutants; Agilent 1220 HPLC, BioBasic SEC-300A column, 50 mM TRIS pH 8.0, 150 mM NaCl, 10 mM DTT; proteins pre-treated with 10 mM DTT; 0.5 ml/min, ambient temperature
outcome measure: stoichiometry N
Please respond with just the number, no unit label.

1) RitR full-length, Leu90 to Ala Gate mutant (natural protein, RitR, Streptococcus pneumoniae strain R800, full-length, Gate residue Leu90 changed to Ala; also called RitRFL Leu90 mutant; source: E. coli BL21(DE3) or BL21(DE3)-Star, purified (Ni2+ agarose, ULP1 cleavage, subtractive Ni2+ column); not shown: His6, N-terminal, cleaved; SUMO, N-terminal, cleaved) MGKRILLLEKERNLAHFLSLELQKEQYRVDLVEEGQKALSMALQTDYDLILLNVNLGDMMAQDFAEKLSRTKPASVIMILDHWEDLQEEAEVVQRFAVSYIYKPVLIENLVARISAIFRGRDFIDQHCSLMKVPRTYRNLRIDVEHHTVYRGEEMIALTRREYDLLATLMGSKKVLTREQLLESVWKYESATETNIVDVYIRYLRSKLDVKGQKSYIKTVRGVGYTMQE; 2
2) RitR full-length, Leu86/Val93 double mutant (natural protein, RitR, Streptococcus pneumoniae strain R800, full-length, Val93 mutant combined with a Leu86 mutation (Ala); also called RitRFL Leu86/Val93 double mutant; source: E. coli BL21(DE3) or BL21(DE3)-Star, purified (Ni2+ agarose, ULP1 cleavage, subtractive Ni2+ column); not shown: His6, N-terminal, cleaved; SUMO, N-terminal, cleaved) MGKRILLLEKERNLAHFLSLELQKEQYRVDLVEEGQKALSMALQTDYDLILLNVNLGDMMAQDFAEKLSRTKPASVIMILDHWEDAQEELEVAQRFAVSYIYKPVLIENLVARISAIFRGRDFIDQHCSLMKVPRTYRNLRIDVEHHTVYRGEEMIALTRREYDLLATLMGSKKVLTREQLLESVWKYESATETNIVDVYIRYLRSKLDVKGQKSYIKTVRGVGYTMQE; 2

// switching to the query protein
Data request: Consider the protein RitR full-length, Leu86 to Ala Gate mutant (natural protein, RitR, Streptococcus pneumoniae strain R800, full-length, Gate residue Leu86 changed to Ala; also called RitRFL Leu86 mutant; source: E. coli BL21(DE3) or BL21(DE3)-Star, purified (Ni2+ agarose, ULP1 cleavage, subtractive Ni2+ column); not shown: His6, N-terminal, cleaved; SUMO, N-terminal, cleaved) MGKRILLLEKERNLAHFLSLELQKEQYRVDLVEEGQKALSMALQTDYDLILLNVNLGDMMAQDFAEKLSRTKPASVIMILDHWEDAQEELEVVQRFAVSYIYKPVLIENLVARISAIFRGRDFIDQHCSLMKVPRTYRNLRIDVEHHTVYRGEEMIALTRREYDLLATLMGSKKVLTREQLLESVWKYESATETNIVDVYIRYLRSKLDVKGQKSYIKTVRGVGYTMQE and give its measured stoichiometry N.
Data returned: 2

The origin of these recorded values is paper PMC4395418.
